Tested on: Male Sprague-Dawley Rats
Assay: Serum clinical chemistries in male Sprague-Dawley rats
Format: in vivo
Details: rat, in vivo
reported-property: GLUC (glucose), percent of control (%)
Give bare numbers, in %.

As a guide, the following entries are already answered.
• CC(C)CCCC(C)CCOc1ccc(O)c(C(C)(C)C)c1 (stereo not shown) = 106
• CC(C)=CCC[C@H](C)CCOc1cc(C(C)(C)C)c(O)cc1C(C)(C)C = 96
• CC(C)=CCC[C@H](C)CCSc1ccc(O)c(C(C)(C)C)c1 = 95
• CC(C)=CCCC(C)CCSc1cc(C(C)(C)C)c(O)c(C(C)(C)C)c1 (stereo not shown) = 110
• CC(C)CCCC(C)CCOc1cc(C(C)(C)C)c(O)c(C(C)(C)C)c1 (stereo not shown) = 98
• CC(C)=CCCC(C)CCOc1ccc(O)c(C(C)(C)C)c1 (stereo not shown) = 96

GLUC (glucose), percent of control for `CC(C)=CCC[C@H](C)CCOc1ccc(O)c(C(C)(C)C)c1` is 101

Measured values drawn from patent US6114572A for this set.
